Biological target: Poly [ADP-ribose] polymerase 1 (Homo sapiens, UniProt P09874)
Sequence (P09874 whole entry): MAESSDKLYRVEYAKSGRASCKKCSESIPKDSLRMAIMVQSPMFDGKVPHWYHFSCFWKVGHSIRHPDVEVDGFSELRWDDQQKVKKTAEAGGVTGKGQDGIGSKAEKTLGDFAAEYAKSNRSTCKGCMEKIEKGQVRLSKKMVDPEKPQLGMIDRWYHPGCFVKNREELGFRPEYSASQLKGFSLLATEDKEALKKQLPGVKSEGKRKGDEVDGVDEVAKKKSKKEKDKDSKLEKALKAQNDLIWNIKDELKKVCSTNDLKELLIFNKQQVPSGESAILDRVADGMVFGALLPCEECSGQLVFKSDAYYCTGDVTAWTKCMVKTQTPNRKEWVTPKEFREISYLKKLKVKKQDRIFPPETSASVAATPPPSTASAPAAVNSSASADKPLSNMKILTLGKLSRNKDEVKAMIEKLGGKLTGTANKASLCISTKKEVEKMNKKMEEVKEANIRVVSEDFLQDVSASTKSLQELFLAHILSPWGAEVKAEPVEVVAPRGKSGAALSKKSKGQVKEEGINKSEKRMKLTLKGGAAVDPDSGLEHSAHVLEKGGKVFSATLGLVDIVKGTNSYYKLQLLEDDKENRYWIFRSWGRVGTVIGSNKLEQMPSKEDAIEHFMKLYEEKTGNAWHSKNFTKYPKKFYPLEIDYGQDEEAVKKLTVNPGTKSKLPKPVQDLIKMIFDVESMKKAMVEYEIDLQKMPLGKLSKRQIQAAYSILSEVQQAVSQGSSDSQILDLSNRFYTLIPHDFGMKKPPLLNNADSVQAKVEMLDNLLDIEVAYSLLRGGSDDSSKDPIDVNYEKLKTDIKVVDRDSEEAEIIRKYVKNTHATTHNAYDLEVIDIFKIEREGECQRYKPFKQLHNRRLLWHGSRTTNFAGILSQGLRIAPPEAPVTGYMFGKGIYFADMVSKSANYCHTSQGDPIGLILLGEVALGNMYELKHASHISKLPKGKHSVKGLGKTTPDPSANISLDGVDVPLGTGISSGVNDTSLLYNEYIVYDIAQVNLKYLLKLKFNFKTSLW
Assay: Inhibition of human recombinant PARP1 in U251MG cells by CometAssay
Assay type: cell-based, U-251
We label by threshold. Values of IC50 strictly beneath 20 nM are Condition met. Values of 20 nM and up are Condition not met.

Challenge: Take the compound CC(C)(C)OC(=O)NC(CCCc1nc(-c2ccc3[nH]c4c5c(c6c(c4c3c2)C(=O)NC6=O)CCC5)cs1)C(=O)OC(C)(C)C (stereo unspecified) and say whether its IC50 is less than 20 nM.
Response given: Condition not met

Challenge: Take the compound O=C1NC(=O)c2c1c1c(c3[nH]c4ccc(-c5csc(CNC6O[C@H](CO)[C@@H](O)[C@H](O)[C@H]6O)n5)cc4c23)CCC1 (stereo partly specified) and say whether its IC50 is less than 20 nM.
Response given: Condition met

Challenge: Take the compound NCc1ccc2[nH]c3c4c(c5c(c3c2c1)C(=O)NC5=O)CCC4 and say whether its IC50 is less than 20 nM.
Response given: Condition met

Challenge: Take the compound NC(CCCc1nc(-c2ccc3[nH]c4c5c(c6c(c4c3c2)C(=O)NC6=O)CCC5)cs1)C(=O)O.O=C(O)C(F)(F)F (stereo unspecified) and say whether its IC50 is less than 20 nM.
Response given: Condition not met

Challenge: Take the compound CS(=O)(=O)NCc1nc(-c2ccc3[nH]c4c5c(c6c(c4c3c2)C(=O)NC6=O)CCC5)cs1 and say whether its IC50 is less than 20 nM.
Response given: Condition met

Challenge: Take the compound O=C1NC(=O)c2c1c1c(c3[nH]c4ccc(-c5csc(-c6ccno6)n5)cc4c23)CCC1 and say whether its IC50 is less than 20 nM.
Response given: Condition not met
